pIC50, Syk (2-635) (KSYK_HUMAN, P43405) (Homo sapiens, UniProt P43405): measured values
// pIC50 is dimensionless: -log10 of concentration (M)

Recorded pIC50, per entry:
compound="NC(=O)c1nnc(N[C@@H]2CCCC[C@@H]2N)nc1Nc1cccc2[nH]ncc12 [Example 2.5]" assay_readout=pIC50 numeric_result=7.52
compound="N#Cc1c[nH]c2c(Nc3nc(N[C@@H]4CCCC[C@@H]4N)nnc3C(N)=O)cccc12 [Example 2.4]" assay_readout=pIC50 numeric_result=7.07

--- query ---
The value of pIC50 recorded for Cn1ncc2c(Nc3nc(N[C@@H]4CCCC[C@@H]4N)nnc3C(N)=O)cccc21 [Example 2.1] when tested on Syk (2-635) (KSYK_HUMAN, P43405) (Homo sapiens, UniProt P43405) reads 7.92

###

Target: hERG channel (Homo sapiens, UniProt Q12809)
Construct: host or cells: HEK293
Sequence (Q12809 whole entry): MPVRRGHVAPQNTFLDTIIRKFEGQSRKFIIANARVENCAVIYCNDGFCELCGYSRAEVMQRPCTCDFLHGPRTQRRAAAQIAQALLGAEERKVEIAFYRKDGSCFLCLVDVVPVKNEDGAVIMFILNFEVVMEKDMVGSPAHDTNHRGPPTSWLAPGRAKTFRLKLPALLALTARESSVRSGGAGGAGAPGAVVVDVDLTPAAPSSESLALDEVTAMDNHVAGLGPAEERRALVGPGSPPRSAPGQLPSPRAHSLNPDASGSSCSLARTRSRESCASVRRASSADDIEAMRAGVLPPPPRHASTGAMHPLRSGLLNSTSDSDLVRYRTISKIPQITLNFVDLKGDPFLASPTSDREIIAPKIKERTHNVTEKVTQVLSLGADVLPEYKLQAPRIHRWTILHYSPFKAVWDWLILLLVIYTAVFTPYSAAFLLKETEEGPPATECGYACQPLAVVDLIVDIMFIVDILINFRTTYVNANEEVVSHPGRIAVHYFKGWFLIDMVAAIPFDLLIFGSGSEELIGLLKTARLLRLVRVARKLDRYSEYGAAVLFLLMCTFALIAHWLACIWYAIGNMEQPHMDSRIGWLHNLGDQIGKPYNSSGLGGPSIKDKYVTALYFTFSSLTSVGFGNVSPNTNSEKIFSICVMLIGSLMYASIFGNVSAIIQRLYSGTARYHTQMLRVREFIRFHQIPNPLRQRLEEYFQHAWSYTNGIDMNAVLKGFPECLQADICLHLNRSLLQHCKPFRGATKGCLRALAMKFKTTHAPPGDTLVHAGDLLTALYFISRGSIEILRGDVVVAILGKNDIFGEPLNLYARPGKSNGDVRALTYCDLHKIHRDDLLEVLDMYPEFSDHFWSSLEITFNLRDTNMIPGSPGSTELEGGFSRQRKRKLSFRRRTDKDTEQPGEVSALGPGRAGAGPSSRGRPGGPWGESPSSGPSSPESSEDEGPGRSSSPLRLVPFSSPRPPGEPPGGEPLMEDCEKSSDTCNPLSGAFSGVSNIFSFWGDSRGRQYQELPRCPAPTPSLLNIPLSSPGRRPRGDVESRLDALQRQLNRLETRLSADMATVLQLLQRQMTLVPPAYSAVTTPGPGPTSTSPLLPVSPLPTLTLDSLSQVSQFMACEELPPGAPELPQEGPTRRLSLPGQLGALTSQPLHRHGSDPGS
Experiment: Inhibition of the hERG channel (manual patch clamp assay)
Assay type: cell-based
Conditions: HEK293 cells stably transfected with hERG cDNA, at 3 uM, whole-cell patch clamp, tail current
ASSAY READOUT: inhibition at 9 min, 3 µM (%)
Your answer is read as %, so omit the unit and give the number.

The compound "Cc1c[nH]c2c(Nc3nc(N[C@@H]4CCCC[C@@H]4N)nnc3C(N)=O)cccc12" showed inhibition at 9 min, 3 µM equal to 24
